- Tested on: LXRb:RXRa (NR concentration 270 nM, RXRa partner concentration 90 nM)
- method_description: PBM binding z-score (relative to random genomic background probes); higher = stronger binding; sequences stand for … in GC…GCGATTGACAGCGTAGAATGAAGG
Classification field: enter rule met for PBM binding z-score values not below 2, rule not met for values below it.

Use these answered entries as a reference point.
TACCCTAGGTCATGGGCCAGTATACCACGCGAAC	rule met
CGTCAAAGGTCAGCAGGTCAGTGAAAGCGACGTG	rule met

In: Could you please find out whether CGTCAAACTTCAACTAAGGTAACGTAAAGCACGC has PBM binding z-score that meets 2 or exceeds it?
Out: rule not met

In: Could you please find out whether TAGCCTAGGTCATGCGGCCCAGTATAGTGTCGGC has PBM binding z-score that meets 2 or exceeds it?
Out: rule not met

====

- Test system: VDR homodimer (NR concentration 270 nM)
- method_description: PBM binding z-score (relative to random genomic background probes); higher = stronger binding; sequences stand for … in GC…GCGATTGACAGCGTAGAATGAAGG
Grouping rule (PBM binding z-score): range A: < 1; range B: ≥ 1 and < 3; range C: ≥ 3

Use these answered entries as a reference point.
CAAACTAGGTCAAGGTCTAAGTCGGTTTGTGCCA	range B
AATAAAGGGTCATCGTAGGCCAGAGTACGCACAG	range C
CCTACTGGGCCATTCAGAGGGCATTGATCATATG	range A
CCTTAGGGGTCACTGACAGGTTATAGCATTTGGA	range C
ATCGAAAGGTCGACGAGGTGAGTAAACACCGTTT	range A
CGTCAAAGGTCAAGGTCAGTGAAAGAGACTCGAA	range C

In: Using the reported PBM binding z-score, which band applies to ATCGAAAGGTCATGAGGTGAGTATACAGAAAGGC ?
Out: range B

In: Using the reported PBM binding z-score, which band applies to CGCACTAGGTCATCCAGGACAGTGAATACATTGA ?
Out: range B

In: Using the reported PBM binding z-score, which band applies to CTCGAAAGGTCGTGCTCAGATGAGTATACCAAAC ?
Out: range B

In: Using the reported PBM binding z-score, which band applies to CGAACTAGGTCTAAGGACAGTGAAAGGCGACGTA ?
Out: range A

In: Using the reported PBM binding z-score, which band applies to CAAACTAGGTCACAGTGGTCAAAGTCCGTGCGTA ?
Out: range B

====

- Tested on: LXRb:RXRa (NR concentration 270 nM, RXRa partner concentration 90 nM)
- method_description: PBM binding z-score (relative to random genomic background probes); higher = stronger binding; sequences stand for … in GC…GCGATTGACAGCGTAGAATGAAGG
result_type: PBM binding z-score
Would you mind answering with just the numeric figure?

Guide cases for PBM binding z-score, answers given:
TAGCCTAGGTCATGGGCCAGTGTACCACGCGAAC	2.46
TGTCAAAGTTCAAAGGTGACGTAAGTATCCACAC	5.06
ATCGAAAGGTCGACGCGGTGAGTATACACCGTTT	2.25

Reported PBM binding z-score ( CCTACTGGGCCAAAGGTGATTGATTCCAATGCTC ) = 0.206

Reported PBM binding z-score ( AGTCAAAGTTCAGGACGACGTAACGTAAAGCACG ) = 1.67

Reported PBM binding z-score ( ATCTCTAGGTTAAGATAGTTCAGTGAATGCAAAT ) = 3.33
